Measured TGI of individual entries
Test system: OVCAR-3 ovarian
Measurement protocol: NCI tumour cell line growth inhibition, 48 h
Answer in µM, number only, no unit symbol.

[ask] What value of TGI has been recorded for this entry: COC1CC2C=C(C)/C=C/C=C/C(=O)NC(c3ccccc3)C/C=C/CCC(O)CC(=O)C2=C1O (configuration not stated)
[reply] 0.894

[ask] What value of TGI has been recorded for this entry: `COc1ccc2c(c1OC)C1=C(C2=O)c2cc3c(cc2CCN1)OCO3`
[reply] 90.7

[ask] What value of TGI has been recorded for this entry: CCN1C(=S)N(CC)C2C1NC(=S)N2/N=C/C=C/c1ccccc1 (configuration not stated)
[reply] 4.97

[ask] What value of TGI has been recorded for this entry: `ClC(Cl)(Cl)C1=N[C@H]2[C@H](Br)[C@@H]3O[C@@H](c4ccccc4)[C@H](c4ccccc4)O[C@@H]3[C@H]2O1`
[reply] 31.9

[ask] What value of TGI has been recorded for this entry: `N#Cc1c(-c2ccccc2)cc(-c2ccc(Nc3nc(Nc4ccc(Cl)cc4)nc(Nc4ccc(Cl)cc4)n3)cc2)nc1N`
[reply] 3.68

[ask] What value of TGI has been recorded for this entry: `O=C1Sc2ccc(Br)cc2C(=O)Sc2ccccc21`
[reply] 27.2

[ask] What value of TGI has been recorded for this entry: `O=c1nc(Nc2cccc(Cl)c2)oc2cc(Cl)oc(=O)c12`
[reply] 13.3

[ask] What value of TGI has been recorded for this entry: `COc1cccc(-c2ccc3c4c2O[C@H]2c5[nH]c6ccccc6c5C[C@@]5(O)[C@@H](C3)N(CC3CC3)CC[C@]425)c1`
[reply] 3.3

[ask] What value of TGI has been recorded for this entry: `Clc1ccc(Cc2nc3ccc(CCN4CCN(c5ccccc5)CC4)cc3[nH]2)cc1`
[reply] 27
